# measured_target: DpIseK (substrate-binding subunit of the IseG-associated TRAP transporter) (Desulfovibrio piger)
# Construct: gene DESPIGER_1592; soluble periplasmic subunit, codon-optimised, expressed as His6-MBP-TEV fusion; MBP tag cleaved and removed before ITC
# Sequence (A0A1K1LFE7 24-332): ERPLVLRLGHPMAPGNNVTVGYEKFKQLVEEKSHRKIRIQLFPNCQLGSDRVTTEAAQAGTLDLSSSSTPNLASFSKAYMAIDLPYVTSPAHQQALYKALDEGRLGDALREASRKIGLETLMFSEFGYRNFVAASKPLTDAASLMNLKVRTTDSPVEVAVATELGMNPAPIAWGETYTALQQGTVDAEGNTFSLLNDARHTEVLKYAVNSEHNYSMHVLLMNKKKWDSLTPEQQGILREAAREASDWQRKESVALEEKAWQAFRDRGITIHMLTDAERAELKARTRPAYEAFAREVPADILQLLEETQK
# protocol_notes: isothermal titration calorimetry
reported_metric: Kd (nM)

INSERT INTO assay_data (molecule, reported_metric, number) VALUES
  ('O=S(=O)(O)CCO [isethionate]', 'Kd', 500);
